# Tested on: astro (control astrocytes)
# test_protocol: Drug repurposing screens with cells derived from glioblastoma tumor samples (AID 1345199); also: nearly all actives have a fitted effect of over 40% in size
# details: viability, ATP luminescence, 48 h; series mostly up to 45.9 µM
Results filed as inconclusive are left out. The source made the active and inactive calls. Calls follow the shape of the dose curve; as a rule, active = well fitted inhibition curve with a large enough effect; inconclusive = small, poorly fitted or top-dose-only effect; inactive = flat fitted curve, though single readings scatter.
Write down one outcome, taken from T = active, F = inactive

For orientation, consider the following solved cases.
| compound | answer_label |
| --- | --- |
| COc1cc(C=O)ccc1O | F |
| Nc1c(NC/C=C\COc2cc(CN3CCCCC3)ccn2)c(=O)c1=O | F |
| O=[N+]([O-])c1ccc(O)c2ncccc12 | T |
| NC(=O)COCCN1CCN(C(c2ccccc2)c2ccc(Cl)cc2)CC1 (configuration not stated) | F |
| CC(=O)N[C@@H](CCC(N)=O)C(=O)O | F |
| CC(=O)OCC(=O)[C@@]1(O)[C@H](OC(C)=O)C[C@H]2[C@@H]3CCC4=CC(=O)C=C[C@]4(C)[C@@]3(F)[C@@H](O)C[C@@]21C | F |

From here, focus on the item given below.
Q: Assay outcome for "O=C(O)c1ccccc1Nc1cc(Cl)ccc1C(=O)O" : what was it?
Result: F

----------
# Tested on: WaGa
# test_protocol: qHTS assay to identify novel small-molecules to repurpose for Merkel cell carcinoma treatment (AID 1296009); also: nearly all actives have a fitted effect of over 60% in size; also: potency is read from the fitted curve at half-maximal effect
# details: MCC and control cell lines, CellTiter-Glo viability, 72 h; series mostly up to 46 µM
Records with an inconclusive call do not appear. Active and inactive are the calls of the source. Calls come from the whole dose curve; as a rule, active = well fitted inhibition curve with a large enough effect; inconclusive = small, poorly fitted or top-dose-only effect; inactive = flat fitted curve, though single readings scatter.
observable: Potency

Below are worked cases with known answers.
| compound | measured_on | Potency |
| --- | --- | --- |
| O=C(O)CCC(=O)OC[C@@H](NC(=O)C(Cl)Cl)[C@H](O)c1ccc([N+](=O)[O-])cc1 | WaGa | inactive |
| N#CSCC(=O)O | WaGa | inactive |
| O=C(C1CCCCC1)N1CC(=O)N2CCCc3ccccc3C2C1 (stereo unspecified) | WaGa | inactive |
| CCCCC(O)/C=C(C)/C=C/C=C/C(=O)N1CCCC1=O (stereo unspecified) | WaGa | inactive |
| O=C(Nc1ccc(Cl)cc1)Nc1ccc(Cl)c(C(F)(F)F)c1 | WaGa | 26.6 µM (active) |

Q: Given the entry "O=C(CCCCCCCCC#CI)Oc1ccccc1" , what Potency was observed with WaGa?
Result: 11.9 µM (active)

----------
# Tested on: CAOV3
# test_protocol: Primary qHTS to identify gynecologic anti-cancer compounds using libraries of approved drugs and bioactive compounds (AID 1345084); also: nearly all actives have a fitted effect of over 55% in size
# details: Gynecologic cancer cell panel viability, ATPlite luminescence, 48 h; series mostly up to 57.5 µM
Results filed as inconclusive are left out. The source made the active and inactive calls. Calls come from the whole dose curve; as a rule, active = well fitted cell-killing curve with a large enough effect; inconclusive = small, poorly fitted or top-dose-only effect, or effect the other way; inactive = flat fitted curve, though single readings scatter.
Entry note: the call must match one of T for active, F for inactive

Completed entries (count: 6):
| compound | answer_label |
| --- | --- |
| O=C1c2ccccc2CCc2ccccc21 | F |
| CC(C)=CCC/C(C)=C/CC/C(C)=C/C(=O)OCC(=O)[C@@]1(O)CC[C@H]2[C@@H]3CCC4=CC(=O)C=C[C@]4(C)[C@H]3[C@@H](O)C[C@@]21C | F |
| Cc1ncc([N+](=O)[O-])n1C | F |
| Cc1oc(=O)oc1COC(=O)[C@@H]1N2C(=O)[C@@H](NC(=O)[C@H](N)c3ccccc3)[C@H]2SC1(C)C | F |
| CCN1C(=O)c2ccccc2C1Nc1ccc(OCCN2CCCCC2)cc1 (stereo unspecified) | F |
| O=C(O)Cc1ccc(OCCNC[C@H](O)c2ccccc2)cc1 | F |

Q: Outcome logged for "CC(C)(c1ccc(O)cc1)c1ccc(O)cc1" in this assay:
Result: F

Q: CC(C(=O)O)c1ccc(/C=C2\CCCCC2=O)cc1 (stereo unspecified) , same question.
Result: F

Q: Another compound: CCOC(=O)NNc1ccc(N(CC)CC(C)O)nn1 (stereo unspecified)
Result: F

Q: Now the same for "Cc1ccc2ccc(Cl)cc2n1"
Result: F

Q: Next compound: "CC(=O)[C@H]1CC[C@H]2[C@@H]3C=CC4=CC(=O)CC[C@@]4(C)[C@@H]3CC[C@]12C"
Result: F

Q: Another: "C/C(=N\O)[C@@H](C)NCC(C)(C)CN[C@H](C)/C(C)=N/O"
Result: F

Q: Try CN1[C@@H]2CC[C@H]1CC(NC(=O)n1c(=O)[nH]c3ccccc31)C2 (stereo partly specified) next.
Result: F
